Target: Zinc finger protein mex-5 (Caenorhabditis elegans, UniProt Q9XUB2)
Sequence (Q9XUB2 whole entry): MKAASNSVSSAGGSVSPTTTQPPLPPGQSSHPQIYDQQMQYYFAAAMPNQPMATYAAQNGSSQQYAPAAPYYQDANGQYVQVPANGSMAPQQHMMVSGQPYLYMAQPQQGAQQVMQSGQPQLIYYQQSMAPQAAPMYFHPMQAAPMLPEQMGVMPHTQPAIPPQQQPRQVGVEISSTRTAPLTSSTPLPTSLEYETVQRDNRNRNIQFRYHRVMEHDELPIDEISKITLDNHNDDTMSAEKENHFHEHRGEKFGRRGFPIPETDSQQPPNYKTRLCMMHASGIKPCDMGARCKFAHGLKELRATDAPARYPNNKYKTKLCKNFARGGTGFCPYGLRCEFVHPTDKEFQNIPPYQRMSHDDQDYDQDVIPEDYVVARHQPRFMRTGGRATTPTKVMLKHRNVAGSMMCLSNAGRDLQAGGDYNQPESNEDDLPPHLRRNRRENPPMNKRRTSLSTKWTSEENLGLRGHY
Experiment: potency of MEX-5 RNA-binding blockers – biochemical, C. elegans, fluorescence polarization, dose response (AID 1960)
Activity calls are given as the source filed them.
EC50 reference

Before answering, review these 5 worked examples.
> print(dat)
                                   compound                              study.target  property.measured           result.value
1  CC(C)Cc1nnc(NC(=O)CCC(=O)N2CC(C)CC(C)C2)s1 (configuration not stated)  Zinc finger protein mex-5 (Caenorhabditis elegans, UniProt Q9XUB2)               EC50  > 300 µM (not active)
2        CN1CCC2(CC1)C(C#N)=C(N)NC(S)=C2C#N  Zinc finger protein mex-5 (Caenorhabditis elegans, UniProt Q9XUB2)               EC50       8.53 µM (active)
3            c1ccc(C2=NNC(c3ccccn3)=NN2)nc1  Zinc finger protein mex-5 (Caenorhabditis elegans, UniProt Q9XUB2)               EC50       22.4 µM (active)
4  Cc1nc2c3ccccc3nc(NNC(=O)CCC(=O)N3CCCC(C)C3)n2n1 (configuration not stated)  Zinc finger protein mex-5 (Caenorhabditis elegans, UniProt Q9XUB2)               EC50         21 µM (active)
5     Nc1ccc2nc(-c3ccccc3)c(-c3ccccc3)nc2c1  Zinc finger protein mex-5 (Caenorhabditis elegans, UniProt Q9XUB2)               EC50       24.9 µM (active)

Respond only with EC50 recorded for NS(=O)(=O)c1cc(C(=O)NC2CCSc3ccccc32)ccc1Cl (configuration not stated)
18.9 µM (inconclusive)

Respond only with EC50 recorded for CC1(OC(=O)c2ccco2)C(=O)C=C2C=C(c3ccc(C#N)cc3)OC=C2C1=O (configuration not stated)
28.9 µM (active)

* * *

Biological target: Cytochrome P450 2C9 (Homo sapiens)
Sequence (P11712 whole entry): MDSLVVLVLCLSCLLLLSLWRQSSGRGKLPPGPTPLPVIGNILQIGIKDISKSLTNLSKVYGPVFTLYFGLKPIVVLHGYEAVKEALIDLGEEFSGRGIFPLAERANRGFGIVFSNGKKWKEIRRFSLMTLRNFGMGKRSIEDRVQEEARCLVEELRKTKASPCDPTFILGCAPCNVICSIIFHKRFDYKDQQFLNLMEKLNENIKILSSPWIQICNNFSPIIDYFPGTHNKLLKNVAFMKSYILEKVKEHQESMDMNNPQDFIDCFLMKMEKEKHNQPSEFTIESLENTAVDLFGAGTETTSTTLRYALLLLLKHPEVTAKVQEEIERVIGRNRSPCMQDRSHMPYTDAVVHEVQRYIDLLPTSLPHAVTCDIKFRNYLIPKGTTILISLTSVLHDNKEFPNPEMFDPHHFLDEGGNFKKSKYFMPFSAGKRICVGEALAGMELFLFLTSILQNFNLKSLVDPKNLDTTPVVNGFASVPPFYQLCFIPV
AC50 reference

> print(dat)
                                   compound  property.measured            result.value
1  COc1ccc(CNc2ccnc(-c3c(C)noc3C)n2)c(OC)c1               AC50     1 µM (inconclusive)
2  COc1ccc(CSC2=C(C#N)C(=O)NC3(CCCCC3)S2)cc1               AC50  3.16 µM (inconclusive)
3  Cn1c(N)c(C(=O)CSc2ccc3c(c2)OCCO3)c(=O)n(C)c1=O               AC50  39.8 µM (inconclusive)
4  COc1ccc(C(C(=O)NC2CCCCC2)N(C(=O)CCCC(=O)Nc2ccccn2)c2ccc3c(c2)OCCO3)cc1 (stereo not given)               AC50  14.1 µM (inconclusive)

Report the value of AC50 obtained on Cytochrome P450 2C9 (Homo sapiens) for COc1ccc(CNc2ncnc3ccc(-c4cccc(C#N)c4)cc23)c(OC)c1 .
0.0158 µM (inconclusive)

Report the value of AC50 obtained on Cytochrome P450 2C9 (Homo sapiens) for c1ccc(CSc2ncnc3c2sc2nc(N4CCOCC4)c4c(c23)CCCC4)cc1 .
1.12 µM (inconclusive)

Report the value of AC50 obtained on Cytochrome P450 2C9 (Homo sapiens) for COc1ccc(CCNC(=O)CCN2C(=O)COc3ccc(C)cc32)cc1OC .
28.2 µM (inconclusive)

Report the value of AC50 obtained on Cytochrome P450 2C9 (Homo sapiens) for O=C(NCCc1c[nH]c2ccccc12)C1CCN(c2nnc(N3CCCC3=O)s2)CC1 .
10 µM (inconclusive)

Report the value of AC50 obtained on Cytochrome P450 2C9 (Homo sapiens) for CCN(CC)N=Nc1[nH]nc2nc(C)cc(C)c12 .
17.8 µM (inconclusive)

Report the value of AC50 obtained on Cytochrome P450 2C9 (Homo sapiens) for Cc1ccc(N2CC(C(=O)Nc3cc(C)on3)CC2=O)cc1 (stereo not given) .
11.2 µM (inconclusive)

* * *

IC50 reference
Biological target: UniProt P31422
Sequence (P31422 whole entry): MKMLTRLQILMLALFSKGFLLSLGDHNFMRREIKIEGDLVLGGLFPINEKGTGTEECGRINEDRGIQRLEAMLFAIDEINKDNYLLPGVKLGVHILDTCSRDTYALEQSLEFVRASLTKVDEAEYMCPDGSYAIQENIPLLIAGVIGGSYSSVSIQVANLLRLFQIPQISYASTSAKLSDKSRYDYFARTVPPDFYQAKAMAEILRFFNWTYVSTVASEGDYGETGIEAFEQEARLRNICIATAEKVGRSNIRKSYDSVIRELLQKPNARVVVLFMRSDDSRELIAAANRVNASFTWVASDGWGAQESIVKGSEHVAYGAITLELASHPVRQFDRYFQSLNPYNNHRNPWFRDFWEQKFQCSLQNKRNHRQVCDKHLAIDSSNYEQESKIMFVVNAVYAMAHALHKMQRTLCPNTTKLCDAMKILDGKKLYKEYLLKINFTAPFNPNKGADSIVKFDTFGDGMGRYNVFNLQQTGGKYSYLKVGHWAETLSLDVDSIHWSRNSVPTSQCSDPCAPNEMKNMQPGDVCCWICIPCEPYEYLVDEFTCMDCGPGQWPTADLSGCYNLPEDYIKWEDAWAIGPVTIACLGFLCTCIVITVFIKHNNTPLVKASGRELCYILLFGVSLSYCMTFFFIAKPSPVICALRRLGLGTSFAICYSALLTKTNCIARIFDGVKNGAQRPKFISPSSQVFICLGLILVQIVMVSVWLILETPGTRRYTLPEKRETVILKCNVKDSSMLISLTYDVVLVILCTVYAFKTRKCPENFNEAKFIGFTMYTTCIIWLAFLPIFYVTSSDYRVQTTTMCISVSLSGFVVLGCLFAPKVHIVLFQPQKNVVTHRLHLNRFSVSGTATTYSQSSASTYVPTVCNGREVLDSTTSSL
Assay: inhibitors of rat mGlu3 Galpha15 signaling – TREx293 cells, calcium flux, mGlu3 NAM project, dose response (AID 651840)
Report the value in nM with no unit label.

Respond only with IC50 recorded for C=CCC1(O)CCCN(C(=O)c2ccc(C#Cc3ccc(OC)cc3)cc2)C1 (configuration not stated)
783

Respond only with IC50 recorded for COc1ccc(C#Cc2ccc(C(=O)N3CCCC(C)(C)C3)cc2)cc1
2010

* * *

Target: 26S proteasome non-ATPase regulatory subunit 14 (Homo sapiens)
Sequence (O00487 whole entry): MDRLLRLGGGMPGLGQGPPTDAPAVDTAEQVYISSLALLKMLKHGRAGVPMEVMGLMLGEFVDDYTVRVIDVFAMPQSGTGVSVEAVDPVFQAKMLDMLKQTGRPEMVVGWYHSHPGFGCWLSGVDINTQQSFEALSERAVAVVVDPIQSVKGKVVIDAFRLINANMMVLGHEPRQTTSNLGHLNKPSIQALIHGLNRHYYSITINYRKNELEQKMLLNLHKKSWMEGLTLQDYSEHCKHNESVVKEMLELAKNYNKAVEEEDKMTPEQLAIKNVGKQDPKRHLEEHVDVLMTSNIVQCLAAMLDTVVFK
Assay: inhibition of proteasome subunit RPN11 – biochemical, fluorescence polarization, uHTS hits, confirmation (AID 602368)
Format: functional
Active and inactive are the calls of the source.
Property measured: IC50

Before answering, review these 3 worked examples.
> print(dat)
                                   compound                              study.target  property.measured       result.value
1  COc1cccc(-c2nn(-c3ccccc3)cc2/C=C(\C#N)C(=O)NCCCn2ccnc2)c1  26S proteasome non-ATPase regulatory subunit 14 (Homo sapiens)               IC50   38.9 µM (active)
2  Cc1nc(SCc2nc3cc(Cl)c(F)cc3[nH]2)c2oc3ccccc3c2n1  26S proteasome non-ATPase regulatory subunit 14 (Homo sapiens)               IC50   38.1 µM (active)
3  NS(=O)(=O)c1cc(C(=O)NC2CCSc3ccccc32)ccc1Cl (centres undefined)  26S proteasome non-ATPase regulatory subunit 14 (Homo sapiens)               IC50  0.763 µM (active)

Now let's try a different one.
Report the value of IC50 obtained on 26S proteasome non-ATPase regulatory subunit 14 (Homo sapiens) for CCOC(=O)c1c(C)[nH]c(C(=O)OCC(=O)N(CC(C)C)c2c(N)n(Cc3ccccc3)c(=O)[nH]c2=O)c1C .
31.8 µM (active)

* * *

Target: Calpain-2 catalytic subunit (Sus scrofa)
Sequence (P43367 whole entry): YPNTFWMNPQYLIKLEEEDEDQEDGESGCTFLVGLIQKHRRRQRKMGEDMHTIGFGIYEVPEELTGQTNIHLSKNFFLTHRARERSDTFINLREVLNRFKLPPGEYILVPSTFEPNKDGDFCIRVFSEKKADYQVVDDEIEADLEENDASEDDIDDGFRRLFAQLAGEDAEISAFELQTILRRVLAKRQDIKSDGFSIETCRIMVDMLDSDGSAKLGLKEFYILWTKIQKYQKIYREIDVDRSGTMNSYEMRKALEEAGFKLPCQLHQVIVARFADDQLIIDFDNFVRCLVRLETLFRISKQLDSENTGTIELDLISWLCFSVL
Experiment: m-calpain protease blockers, concentration series – biochemical, fluorogenic peptide substrate, dose response (AID 1420)
Assay type: functional
Property measured: IC50

> print(dat)
                                   molecule                              study.target  property.measured          result.value
1  Cc1ccc(C2CC(c3cccs3)=NN2C(=O)c2ccco2)o1 (stereo not drawn)  Calpain-2 catalytic subunit (Sus scrofa)               IC50  > 50 µM (not active)
2  O=C(CCCN1C(=O)c2ccccc2C1=O)N1CCC(c2ccccc2)C1 (stereo not drawn)  Calpain-2 catalytic subunit (Sus scrofa)               IC50  25.1 µM (not active)
3  CCN(CC)S(=O)(=O)c1cc(NS(=O)(=O)c2ccccc2)ccc1C  Calpain-2 catalytic subunit (Sus scrofa)               IC50  > 50 µM (not active)
4  Cc1ccc(-c2noc(CSc3nnc(Cc4ccccc4)n3-c3cccc(C)c3)n2)cc1  Calpain-2 catalytic subunit (Sus scrofa)               IC50  5.35 µM (not active)
5  CCOC(=O)C1CCCN(c2c(NCCCN(C)c3ccccc3)c(=O)c2=O)C1 (stereo not drawn)  Calpain-2 catalytic subunit (Sus scrofa)               IC50  > 50 µM (not active)

Respond only with IC50 recorded for O=S(=O)(NC1c2cccc3cccc(c23)C1N1CCNCC1)c1ccccc1 (stereo not drawn)
< 0.4 µM (not active)

Respond only with IC50 recorded for Cc1ccc2nc(Cl)c(/C=N/Nc3ccc(C(=O)O)cc3)cc2c1
4.02 µM (not active)

Respond only with IC50 recorded for CCCOc1ccc(OCCN2CCCC(C)C2)cc1 (stereo not drawn)
< 0.4 µM (not active)

* * *

Biological target: Histone-lysine N-methyltransferase NSD2 (Homo sapiens, UniProt O96028)
Sequence (O96028 whole entry): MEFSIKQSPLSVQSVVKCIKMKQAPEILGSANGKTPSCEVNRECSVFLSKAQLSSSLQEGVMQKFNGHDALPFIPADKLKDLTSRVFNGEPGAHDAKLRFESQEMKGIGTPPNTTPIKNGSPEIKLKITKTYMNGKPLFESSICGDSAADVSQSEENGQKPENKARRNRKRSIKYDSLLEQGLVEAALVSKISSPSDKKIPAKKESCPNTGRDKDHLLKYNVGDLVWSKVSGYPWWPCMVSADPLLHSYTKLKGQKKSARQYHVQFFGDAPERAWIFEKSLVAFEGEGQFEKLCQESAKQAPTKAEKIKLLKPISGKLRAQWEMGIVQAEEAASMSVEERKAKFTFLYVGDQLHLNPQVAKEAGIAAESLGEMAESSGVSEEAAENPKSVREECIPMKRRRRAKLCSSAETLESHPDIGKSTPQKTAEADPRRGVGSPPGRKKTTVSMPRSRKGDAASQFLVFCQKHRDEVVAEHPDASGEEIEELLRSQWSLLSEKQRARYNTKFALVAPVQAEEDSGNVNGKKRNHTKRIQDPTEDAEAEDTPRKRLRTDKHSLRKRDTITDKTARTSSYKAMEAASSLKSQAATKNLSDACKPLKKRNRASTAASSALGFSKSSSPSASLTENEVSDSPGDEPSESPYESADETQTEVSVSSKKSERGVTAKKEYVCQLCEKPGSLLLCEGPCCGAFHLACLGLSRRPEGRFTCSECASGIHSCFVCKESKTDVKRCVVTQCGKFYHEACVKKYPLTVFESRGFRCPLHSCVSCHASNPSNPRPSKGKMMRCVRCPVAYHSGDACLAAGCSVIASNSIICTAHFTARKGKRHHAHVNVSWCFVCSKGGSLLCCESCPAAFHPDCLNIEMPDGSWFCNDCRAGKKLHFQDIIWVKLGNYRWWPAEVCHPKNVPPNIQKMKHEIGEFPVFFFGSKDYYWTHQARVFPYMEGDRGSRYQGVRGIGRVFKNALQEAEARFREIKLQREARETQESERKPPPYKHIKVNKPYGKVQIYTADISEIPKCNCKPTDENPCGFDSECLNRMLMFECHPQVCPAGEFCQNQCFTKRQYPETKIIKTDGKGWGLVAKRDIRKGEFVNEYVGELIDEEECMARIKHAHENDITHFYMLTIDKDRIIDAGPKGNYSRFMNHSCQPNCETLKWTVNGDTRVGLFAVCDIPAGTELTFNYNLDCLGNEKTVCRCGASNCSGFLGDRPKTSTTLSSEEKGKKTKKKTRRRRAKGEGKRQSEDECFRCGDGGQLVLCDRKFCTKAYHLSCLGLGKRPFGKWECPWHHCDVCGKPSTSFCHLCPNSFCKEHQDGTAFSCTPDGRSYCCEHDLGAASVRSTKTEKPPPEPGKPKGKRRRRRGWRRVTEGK
Format: biochemical
Active and inactive are the calls of the source.
Select the correct class. Options are t for active, f for inactive and nothing else.

> print(dat)
                                   compound  qualitative.label
1  Cc1[nH]n(-c2ccccc2)c(=O)c1C(C[N+](=O)[O-])c1ccc(Cl)cc1 (configuration not stated)                  t
2  CCCCn1c(NC(=O)c2ccccc2)c(C#N)c2nc3ccccc3nc21                  t
3  Cn1c(=O)cc2c3c(c(N4CCCCC4)ccc31)C(=O)c1ccccc1-2                  t
4  C=C(C)c1cccc(C(C)(C)NC(=O)NC2CN3CCC2CC3)c1 (configuration not stated)                  t
5  CCOC(=O)C1=C(C)OC2(O)c3ccccc3C(=O)C12O (configuration not stated)                  t

I'd appreciate the recorded outcome for COC(=O)c1cc(C)nc2c1C(=O)C(=O)C=C2N1CCOCC1 from this test.
t

I'd appreciate the recorded outcome for O=C(/C=C/c1ccco1)Nc1ccccc1C(=O)O from this test.
f
